# Tested On: D189N mutant hMC4R, N-terminal FLAG-tagged (human, UniProt P32245 1-332, D189N)
# Sequence (P32245 whole entry D189N): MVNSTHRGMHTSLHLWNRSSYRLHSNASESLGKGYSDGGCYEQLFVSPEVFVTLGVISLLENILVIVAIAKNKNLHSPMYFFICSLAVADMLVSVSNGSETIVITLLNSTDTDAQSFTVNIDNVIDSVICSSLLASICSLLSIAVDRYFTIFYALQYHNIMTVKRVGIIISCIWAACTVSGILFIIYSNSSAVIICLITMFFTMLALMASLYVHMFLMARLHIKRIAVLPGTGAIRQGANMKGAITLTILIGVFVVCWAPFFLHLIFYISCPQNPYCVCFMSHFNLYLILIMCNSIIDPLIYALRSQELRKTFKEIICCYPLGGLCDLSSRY
# Test Name: radioligand binding
Readout Name: IC50 (nM)
Use nM as the unit, but write only the number.

Request: For the binder shown here, RCVRLHESCLGQQVPCCDPCATCYCRFFNAFCYCRKLGTAMNPCSRT (domain or fragment, UniProt O00253 86-132, looked up) [human agouti-related protein hAGRP(86–132)] , give the reported IC50.
Result: 10.5
